Target: T1, human TMEM106B (human, UniProt Q9NUM4 2-274)
T1 construct: Full-length, on transiently transfected HEK293 cells, or natively expressed on HeLa, U251 and A549 cells; also called huTMEM106B; huTMEM
Assay: FACS HEK+huTMEM, 0.1 ug/ml;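 further: flow cytometry binding of purified mouse IgG antibodies to HEK293 cells transiently expressing TMEM106B, read as median fluorescence intensity with propidium iodide positive dead cells gated out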
// MFI lookup, one value per entry
Output: the number by itself.

Some binders with recorded MFI:
anti-TMEM106B antibody TM-32 (antibody, V domains shown) VH: EVQLQQSGAELVRPGASVRLSCIASGFNIKDYYMYWVKQRPEQGLEWIGRIDPEDGDTEYVPKFQGKATMTADTSSNTAYLQLSSLTSEDIGVYYCTTRTWDLYYAVDNWGQGTSVTVSS VL: DVLMTQTPLSLPVSLGDQASISCRSSQNIVHSNGNTYLEWYLQKPGQSPKLLIDKVSNRFSGVPDRFSGSGSGTDFTLKISRVEAEDLGIYYCFQGSHVPFTFGSGTKLEIK = 20300
anti-TMEM106B antibody TM-10 (antibody, V domains shown) VH: QVQLQQSGAELVKPGASVKISCKGSGYAFSSYWMNWVKQRPGKGLEWIGQIYPGDGDTNYNGKFKGKATLTADKSSTTAYIHLSSLTSEDSAVYFCARWGHYDEAMDDWGQGTSVTVSS VL: DVVMTQTPLSLPVSLGDQASISCRSSQSLVHSNGKTYLHWYVQKPGQSPKLLIYKISNRFSGVPDRFSGSGSGTDFTLKISRVEAEDLGVYFCSQITHVPWTFGGGTKLESK = 21000

Let's switch to this binder now.
The reported MFI of the binder anti-TMEM106B antibody TM-16 (antibody, V domains shown) VH: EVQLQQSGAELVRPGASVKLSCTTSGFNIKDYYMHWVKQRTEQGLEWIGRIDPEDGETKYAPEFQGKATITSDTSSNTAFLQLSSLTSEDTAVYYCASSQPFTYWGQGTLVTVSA VL: QIVLTQSPAIMSASPGEKLTMTCSASSSLNYMYWYQQKPGSSPRLLIYDTSNLASGVPVRFSGSGSGTSYSLTISRMEAEDGATYYCQQWTSFPPTFGAGTKLELK was 680
